# maps each entry to its GI50
System: SK-MEL-2
Protocol: NCI tumour cell line growth inhibition, 48 h
The source made the active and inactive calls. No stated cut-off is given here; in the data, active = GI50 up to about 1.1 µM and inactive = higher.
Quantity: GI50

{"columns": ["Compound", "Reading"],
 "data": [
  ["CCOc1cccc2nc3cccc(C(=O)NCCN(C)C)c3nc12", "1.6 µM (inactive)"],
  ["O=C1/C(=C/c2ccccc2)CN(C(=O)Oc2ccc(Cl)cc2)C/C1=C\\c1ccccc1", "11.5 µM (inactive)"],
  ["C/N=C(\\SC)N(C)c1nc(=[N+](C)C)ss1.[O-][Cl+3]([O-])([O-])[O-]", "> 100 µM (inactive)"],
  ["Cc1nc(=O)n2c(c1C(=O)Nc1ccc(Cl)cc1)NCCC2", "> 100 µM (inactive)"],
  ["OC(c1cc(C(O)(C(F)(F)F)C(F)(F)F)ncn1)(C(F)(F)F)C(F)(F)F", "> 10 µM (inactive)"],
  ["Cc1c(C)c2c(c(N)c1C#N)C(=O)N(NC(=S)Nc1ccccc1)C2=O", "> 100 µM (inactive)"],
  ["O=C1c2ccccc2CC1C1(O)C(=O)Nc2c(Cl)cc(Cl)cc21 (stereo not given)", "97.5 µM (inactive)"],
  ["OCC1OC(c2nc(C3=NCCCN3)cs2)C(O)C1O (stereo not given)", "> 100 µM (inactive)"],
  ["CC(=O)N1C(CCc2ccccc2)CC(C)(C=O)C1Cc1ccc(O[Si](C(C)C)(C(C)C)C(C)C)cc1 (stereo not given)", "3.48 µM (inactive)"],
  ["CC1=CC(=O)c2ccc(C)cc2C1=O", "16.2 µM (inactive)"]
]}

---

Test system: MDA-MB-231
Protocol: NCI tumour cell line growth inhibition, 48 h
Active and inactive are the calls of the source. Rule as the data show it: active = GI50 up to about 1.1 µM and inactive = higher.

{"columns": ["Molecule", "GI50"],
 "data": [
  ["Cc1ccc(C2(c3ccc(Cl)cc3)c3ccccc3C3=NCCN32)cc1 (stereo unspecified)", "5.7 µM (inactive)"],
  ["COc1ccc(-c2c(C#N)c(N)n(C3OCC(O)C(O)C3O)c(=S)c2C#N)cc1 (stereo unspecified)", "> 100 µM (inactive)"],
  ["O=C1/C(=C/c2n[nH]cc2-c2ccc(Cl)cc2)C(=O)N(c2ccccc2)C1c1ccccc1 (stereo unspecified)", "18.9 µM (inactive)"],
  ["O=C1NC(=O)C2=C1CCC2O (stereo unspecified)", "> 100 µM (inactive)"],
  ["CCSc1nc(C)nc2c1sc1nc3ccccc3n12", "> 100 µM (inactive)"],
  ["COc1ccc(OC)c2c(C(C)=O)cccc12", "> 100 µM (inactive)"]
]}

---

Tested on: NCI-H226
Protocol: NCI tumour cell line growth inhibition, 48 h
Calls of active or inactive are those of the source. Rule as the data show it: active = GI50 up to about 1.1 µM and inactive = higher.

{"columns": ["Molecule", "GI50"],
 "data": [
  ["O=C(O)CCc1cccc2c1oc1c(CCC(=O)O)cccc12", "> 100 µM (inactive)"],
  ["Cc1ccc([N+](=O)[O-])cc1NC(=O)C(=O)Cc1cc(=O)oc2cc(O)ccc12", "> 100 µM (inactive)"],
  ["COc1ccc(O)c(/C=N/CCC/N=C/c2cc(OC)ccc2O)c1", "27.4 µM (inactive)"],
  ["O=S(=O)(Nc1nc2ccccc2nc1Nc1ccc2ccccc2c1)c1ccccc1", "16.7 µM (inactive)"],
  ["O=c1cccccc1NCCCCCCCNc1cccccc1=O", "34.5 µM (inactive)"],
  ["CCCCc1c2c(nc3c1CCCC3=O)CCCC2", "18.3 µM (inactive)"],
  ["COC(c1cccc(C(O)(C(F)(F)F)C(F)(F)F)c1)(C(F)(F)F)C(F)(F)F", "18.2 µM (inactive)"],
  ["Oc1cc(-c2cccc(Br)c2)nc2cc3c(cc12)OCO3", "6.75 µM (inactive)"],
  ["C#CCCCCC#CC1CCCC1C1=CC(=O)c2ccccc21 (stereo not drawn)", "14.5 µM (inactive)"],
  ["CC(=O)N(CN1C(=O)CCC1C(=O)O)c1ccccc1Cl (stereo not drawn)", "> 100 µM (inactive)"],
  ["C[N+]1(C)C2Cc3ccccc3C1Cc1ccccc12", "> 100 µM (inactive)"],
  ["N=C(N)N/N=C(/CCN1CCCC1)CC(c1ccccc1)c1c(O)c2ccccc2oc1=O (stereo not drawn)", "> 100 µM (inactive)"],
  ["CC(=O)OCC1(CNc2nc(N)ncc2C#N)CC(CCc2ccccc2)C1 (stereo not drawn)", "42 µM (inactive)"],
  ["Oc1ccc2ccccc2c1/N=N/c1cc(Cl)ccc1Cl", "49 µM (inactive)"],
  ["O=C1N/C(=N/N=C/C(O)C(O)C(O)CO)N/C1=C\\c1ccco1 (stereo not drawn)", "> 100 µM (inactive)"],
  ["CC1=C(C(=O)Nc2ccccc2)C2(CCCCC2)C(C#N)=C(SCC(=O)Nc2ccc(Br)cc2)N1", "6.84 µM (inactive)"],
  ["Cc1ccccc1NC(=O)CSc1nnc(-c2ccc(/N=C\\c3ccc(Cl)cc3)cc2)o1", "> 100 µM (inactive)"],
  ["c1ccc2c(c1)N=C(c1ccc3ccccc3c1)CC(c1cccc3ccccc13)S2 (stereo not drawn)", "45.4 µM (inactive)"],
  ["CCN(CC)C(=O)c1cc([N+](=O)[O-])c(=O)n2c1[nH]c1ccccc12", "> 100 µM (inactive)"],
  ["COc1ccc(OC)c(NCC#N)c1", "> 100 µM (inactive)"],
  ["CCCC(C)c1c(Cl)nc(Cl)nc1Cl (stereo not drawn)", "4.34 µM (inactive)"],
  ["c1ccc2c(c1)-c1ccccc1C2N1CC2CCC(CC2)C1", "19.5 µM (inactive)"],
  ["O=c1c2cc(Br)ccc2nc(CCl)n1-c1ccc(O)c([N+](=O)[O-])c1", "14.5 µM (inactive)"]
]}

---

System: SR
Protocol: NCI tumour cell line growth inhibition, 48 h
Calls of active or inactive are those of the source. No stated cut-off is given here; in the data, active = GI50 up to about 1.1 µM and inactive = higher.
Outcomes: active, inactive

{"columns": ["Molecule", "Class Name"],
 "data": [
  ["CCN(CC)CCCNc1n[n+]([O-])c2ccccc2[n+]1[O-]", "inactive"],
  ["CO/C(=N\\N=C\\c1cccc(Cl)c1)c1ccncc1", "inactive"],
  ["COc1c2occc2c(N)c2ccc(=O)oc12", "inactive"],
  ["N#C/C(=C\\c1ccccc1)C(=O)Nc1nnc(-c2ccccc2)o1", "inactive"],
  ["CC(C)(C)OC(=O)NCCC(N)=S", "inactive"],
  ["CCCCCCCC(=O)OC[n+]1cccc(-c2c(COC(=O)NC(C)C)c(COC(=O)NC(C)C)c3n2CCC3)c1", "inactive"],
  ["NC(Cc1ccc(CP(=O)(O)O)cc1)C(=O)O (centres undefined)", "inactive"],
  ["C[n+]1ccn2c3nc4ccccc4nc3c([O-])c(C#N)c21", "inactive"],
  ["CSc1nc(SC)c2c(C)cn(COCCOC(=O)c3ccccc3)c2n1", "inactive"],
  ["C#CCCCCC#CC1CCCC1C1=CC(=O)c2ccccc21 (centres undefined)", "inactive"],
  ["O=c1oc2c3ccc4ccccc4c3n(CCN3CCCCC3)c2c2ccccc12", "inactive"],
  ["O=C1NC(=O)C2=C1CCC2O (centres undefined)", "inactive"],
  ["O=C(CNc1cccc(Cl)c1)Nn1c(-c2ccccc2)nc2ccccc2c1=O", "inactive"],
  ["CC(=O)Nc1ccc(C(=O)NN2C(=O)C(Cl)C2c2cc(Br)cc(Br)c2O)cc1 (centres undefined)", "inactive"],
  ["C#CCOCC12C=CC(O1)C1C(=O)N(C)C(=O)C12 (centres undefined)", "inactive"],
  ["C(=N\\OCc1ccccc1)/c1ncccc1C1OCCO1", "inactive"],
  ["Cc1cc(S(=O)(=O)Nc2nc(-c3ccccn3)n[nH]2)c(S)cc1Cl", "inactive"],
  ["Cc1nc(=O)n2c(c1C(=O)Nc1ccc(Cl)cc1)NCCC2", "inactive"],
  ["COc1ccc2nc3cccc([N+](=O)[O-])c3c(NCCO)c2c1", "active"],
  ["COc1ccc2c(c1)c1c(n2CCN2CCOCC2)-c2ccccc2CC1", "inactive"],
  ["COc1cccc(NC(=O)CC(=O)n2nc(C)c(/N=N/c3ccccc3)c2C)c1", "inactive"],
  ["Cc1nc(O)nc(N/N=C/c2ccc(Cl)cc2)c1C(=O)NC(C)(CO)CO", "inactive"],
  ["CCC1CC(=O)N(SCC(N)C(=O)O)C1=O (centres undefined)", "inactive"],
  ["C=C(COC(=O)C(C)C)[C@H]1Oc2ccc(C(C)=O)cc2[C@@H]1OC(=O)C(C)C", "inactive"],
  ["CCOC(=O)NNC(=O)NCc1cccc(CNC(=O)NNC(=O)OCC)c1", "inactive"],
  ["CC1C(=O)N(C)C2(CO)C(=O)O[C@H](C)C12O (some centres undefined)", "inactive"],
  ["NC(=S)Nc1nc(=S)[nH]c2c1SC1=N/C(=C\\c3ccco3)C(=O)N12", "inactive"],
  ["NCOC(=O)Cc1ccc(Br)cc1", "active"],
  ["COc1cc(CC(C)NC(C)=O)cc(OC)c1 (centres undefined)", "inactive"],
  ["Nc1nc(SCC(=O)O)nc(O)c1N", "inactive"],
  ["COc1ccc(Nc2nc3ccc(C(F)(F)F)cc3nc2C(=O)O)cc1OC", "inactive"],
  ["CCOC(=O)c1ccc(/N=C2\\SC(=S)N(c3ccc(F)cc3)\\C2=N/c2ccc(C(=O)OCC)cc2)cc1", "inactive"],
  ["CCC(COC(=O)CC[C@@H](NC(=O)C(C)NC(=O)C(C)OC1C(O)C(CO)OC(OCc2ccccc2)C1NC(C)=O)C(N)=O)NC1c2ccccc2Nc2cccc([N+](=O)[O-])c21 (some centres undefined)", "inactive"],
  ["Cc1ccc(/C=N/n2c(=O)[nH]c3ccccc3c2=O)cc1", "inactive"],
  ["C/C1=C/C(=O)O[C@@H]2C[C@@H](CC[C@H](C)/C=C\\C=C\\CC1)O[C@@](O)([C@@H]1CSC(=O)N1)C2 [LATRUNCULIN A]", "active"],
  ["CN(C)CC1CCCC/C1=N/OC(=O)c1ccc(Cl)cc1 (centres undefined)", "inactive"],
  ["N#CC(C(=O)C(=O)Nc1ccc(Cl)c(Cl)c1)c1ccc(Cl)cc1 (centres undefined)", "inactive"],
  ["C[C@@H]1[C@@H](C)C(c2ccccc2)O[Si]1(C(C)(C)C)C(C)(C)C (some centres undefined)", "inactive"],
  ["COc1ccc(OC)c2c(C(C)=O)cccc12", "inactive"],
  ["CCN1CCC(O)(/C=C/c2ccc(Cl)cc2)C(C(=O)/C=C/c2ccc(Cl)cc2)C1 (centres undefined)", "inactive"],
  ["Oc1ccc(/C=N/N=c2\\[nH][nH]/c(=N\\N=C\\c3ccc(O)cc3O)c3ccccc23)c(O)c1", "active"],
  ["Cc1c(C)c2c(c(N)c1C#N)C(=O)N(NC(=S)Nc1ccccc1)C2=O", "inactive"],
  ["COc1ccc(-c2nc(O)c3ccccc3n2)cc1", "inactive"],
  ["COc1ccc(-c2c3c(n(C4OC(CO)C(O)C(O)C4O)c(=S)c2C#N)CCCC3)cc1 (centres undefined)", "inactive"]
]}
